# Target entity: human TLR7 (Homo sapiens, UniProt Q9NYK1)
# Sequence (Q9NYK1 27-1049): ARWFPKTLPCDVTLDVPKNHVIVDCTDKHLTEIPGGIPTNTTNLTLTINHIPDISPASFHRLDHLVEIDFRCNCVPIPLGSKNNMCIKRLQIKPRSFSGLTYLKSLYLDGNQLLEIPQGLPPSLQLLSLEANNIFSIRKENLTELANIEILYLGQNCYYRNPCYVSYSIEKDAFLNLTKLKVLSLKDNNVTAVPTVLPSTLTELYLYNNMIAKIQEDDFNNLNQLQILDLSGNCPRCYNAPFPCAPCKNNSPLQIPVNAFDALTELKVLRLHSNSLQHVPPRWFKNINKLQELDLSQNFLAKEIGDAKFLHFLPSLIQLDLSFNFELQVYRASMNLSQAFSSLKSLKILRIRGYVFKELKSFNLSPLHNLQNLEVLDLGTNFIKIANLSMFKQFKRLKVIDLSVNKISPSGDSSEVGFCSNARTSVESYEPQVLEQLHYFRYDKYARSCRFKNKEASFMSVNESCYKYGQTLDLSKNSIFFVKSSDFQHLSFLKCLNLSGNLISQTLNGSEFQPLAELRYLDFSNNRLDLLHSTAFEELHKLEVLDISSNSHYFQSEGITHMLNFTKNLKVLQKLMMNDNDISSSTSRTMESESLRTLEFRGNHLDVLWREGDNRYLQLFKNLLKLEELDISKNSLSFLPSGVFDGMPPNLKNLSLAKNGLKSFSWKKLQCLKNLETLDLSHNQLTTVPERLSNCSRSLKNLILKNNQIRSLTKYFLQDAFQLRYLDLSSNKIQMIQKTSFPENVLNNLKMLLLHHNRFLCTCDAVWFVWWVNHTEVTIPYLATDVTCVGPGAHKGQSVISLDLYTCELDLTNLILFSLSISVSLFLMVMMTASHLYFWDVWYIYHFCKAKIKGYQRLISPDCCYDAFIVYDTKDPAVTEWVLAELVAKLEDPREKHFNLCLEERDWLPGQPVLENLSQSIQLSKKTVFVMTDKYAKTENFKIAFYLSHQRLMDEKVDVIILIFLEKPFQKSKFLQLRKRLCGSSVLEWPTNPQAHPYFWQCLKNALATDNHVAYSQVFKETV
# Method: HEK293-Blue-hTLR-7 cells assay
# Experimental context: HEK293-Blue-hTLR7 cells, R848 stimulation, 20 hrs, SEAP reporter; read-out: HEK/hTLR7 IC50
Readout label: IC50 (nM)

Solved entries (count: 6):
C[C@@H]1Cc2nn(C3CN(C[C@H]4CN(c5ccc(C#N)c6ncccc56)C[C@@H](C)O4)C3)cc2CN1 [Example 17] : 4
C[C@@H]1CN(c2ccc(C#N)c3ncccc23)C[C@H](CN2CC(n3ncc4c3C[C@H](C)NC4)C2)O1 [Example 18] : 17
Cc1nn(C2CN(C[C@H]3CN(c4ccc(C#N)c5ncccc45)C[C@@H](C)O3)C2)c2c1CCNC2 [Example 42] : 7
CC(C)N1CCc2cn(C3CN(C[C@H]4CN(c5ccc(C#N)c6ncccc56)C[C@@H](C)O4)C3)nc2C1 [Example 9] : 12
C[C@@H]1CN(c2ccc(C#N)c3ncccc23)C[C@H](CN2CC(n3cc4c(n3)[C@@H](C)CNC4)C2)O1 (single isomer, unassigned) [Example 26] : 6
C[C@@H]1CN(c2ccc(C#N)c3ncccc23)C[C@H](CN2CC(n3cc4c(n3)CCNC4)C2)O1 [Example 2] : 25

[1] Cc1c2c(nn1C1CN(C[C@H]3CN(c4ccc(C#N)c5ncccc45)C[C@@H](C)O3)C1)CCN(C)C2 [Example 15]
[2] C[C@@H]1CN(c2ccc(C#N)c3ncccc23)C[C@H](CN2CC(n3cc4c(n3)C(C)(C)CNC4)C2)O1 [Example 24]
Which of these two has the smaller recorded IC50: 1 or 2 ? Reply briefly: the label of your chosen item.
2
(2: 4 nM, 1: 9 nM)
